Parameter switch fluorescence ratio: see the listing below.
- Test system: ATP;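 further: ATP exposure 15 min at 22 °C before imaging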
- test description: switch fluorescence ratio, 500 uM ATP over buffer (Cy3 cluster intensity, sum of 5 cycles each) (fold (ratio)); higher = stronger signal-on switching upon ATP binding; sequences stand for … in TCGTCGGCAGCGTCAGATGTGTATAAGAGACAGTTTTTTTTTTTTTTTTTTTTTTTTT…TC
- condition details: aptamer strand: ATP DNA aptamer (quencher-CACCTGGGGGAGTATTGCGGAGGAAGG + anchor), 100 nM annealed; ATP concentration: 500 uM
Answer with a number only.

ATGGGGGTTT	0.984
ACACATAGGG	0.999
GTATTGATTT	0.977

Given GATGGCTACG , state its recorded switch fluorescence ratio.
1.01

Record request: switch fluorescence ratio value, item GTTGGAGTGC
0.982

What does the data say about its switch fluorescence ratio? Entry: AAGAGGGGGT
1

Give its switch fluorescence ratio value. Item: ATAAGGTCTA
0.971

Any idea what switch fluorescence ratio was measured for GTAACTAGAG ?
0.997

I have this sequence here, CGCGTAGAC , and I need its recorded switch fluorescence ratio.
1.66

May I ask what switch fluorescence ratio has been recorded for AATTAGGTGA ?
1.04

Returns the measured switch fluorescence ratio for the input sequence. Input: TTTTGTTGCA
1.04

* * *

- Test system: ATP;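 further: ATP exposure 15 min at 22 °C before imaging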
- test description: switch fluorescence ratio, 500 uM ATP over buffer (Cy3 cluster intensity, sum of 5 cycles each) (fold (ratio)); higher = stronger signal-on switching upon ATP binding; sequences stand for … in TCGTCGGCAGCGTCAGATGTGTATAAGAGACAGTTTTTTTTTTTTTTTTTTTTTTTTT…TC
- condition details: aptamer strand: ATP DNA aptamer (quencher-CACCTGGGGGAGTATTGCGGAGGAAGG + anchor), 100 nM annealed; ATP concentration: 500 uM
endpoint label: switch fluorescence ratio
Field format: numeric only.

Field: example entries. Status: answers known.
TTAGCTAAAA	1.01
ATTAATCTGA	0.96
TCTTAGGGAT	1
TGGGAATTGA	0.998
AAGGGTGAC	1.01

Field request: switch fluorescence ratio | item: AGGTCGTGTT
0.992

# input sequence: GGTCATAGGG ; wanted: its switch fluorescence ratio
0.958

Form field: reported switch fluorescence ratio of CGTCTGTGGG
0.984

Entry TTTCCGATTT : reported switch fluorescence ratio = ?
0.989

Can you share its switch fluorescence ratio? I mean this sequence: GGGGCTCACG
0.985

Form field: reported switch fluorescence ratio of TTCGCAACGG
1.22

* * *

- Test system: ATP;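 further: ATP exposure 15 min at 22 °C before imaging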
- test description: switch fluorescence ratio, 500 uM ATP over buffer (Cy3 cluster intensity, sum of 5 cycles each) (fold (ratio)); higher = stronger signal-on switching upon ATP binding; sequences stand for … in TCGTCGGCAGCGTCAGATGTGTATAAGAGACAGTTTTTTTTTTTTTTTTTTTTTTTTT…TC
- condition details: aptamer strand: ATP DNA aptamer (quencher-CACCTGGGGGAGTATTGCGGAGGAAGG + anchor), 100 nM annealed; ATP concentration: 500 uM
// switch fluorescence ratio lookup, one value per entry
// return just the number, without any unit appended

Here is how some sequences turned out for switch fluorescence ratio.
GGCAGGGGGG	1.04
TTTCTATATA	1
AGGGTTGTGC	1.03
TACCACGGGG	1.04
CCAAAGATTG	0.993
GGCTTTATTC	0.984
CCGTGTTCTA	1.03
GGGTGGGGCA	1.01
TACTTGGACT	1.06
TGGTGTGGAG	1.06

What measured switch fluorescence ratio goes with AGGAGGTGGG ?
0.981

I'd like to know its switch fluorescence ratio. The sequence in question is TTAGAAAGAA
0.976

Sample AGCGACCGTT — what was its switch fluorescence ratio?
1.03

Quick one: switch fluorescence ratio for GGTGATTGAC ?
1.18

Tell me the measured switch fluorescence ratio of GGGTTGTCCG , please.
1.05

* * *

- Test system: ATP;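 further: ATP exposure 15 min at 22 °C before imaging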
- test description: switch fluorescence ratio, 500 uM ATP over buffer (Cy3 cluster intensity, sum of 5 cycles each) (fold (ratio)); higher = stronger signal-on switching upon ATP binding; sequences stand for … in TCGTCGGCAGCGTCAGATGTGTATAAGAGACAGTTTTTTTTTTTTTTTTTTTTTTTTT…TC
- condition details: aptamer strand: ATP DNA aptamer (quencher-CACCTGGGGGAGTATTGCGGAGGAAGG + anchor), 100 nM annealed; ATP concentration: 500 uM
Each entry below lists one item and its recorded switch fluorescence ratio value.
Please state the value as a number alone, without comment.

Below, each entry is followed by its recorded switch fluorescence ratio result.
GGTGATAGTG	0.983
TAAATTTTTT	0.996
GTTTGTTTGT	0.995
TAGGGTAAGG	0.97
ATTTTAACGC	1.05

What reported switch fluorescence ratio corresponds to GGATTTGTTA on ATP?
0.983

What reported switch fluorescence ratio corresponds to TGGAATAGGT on ATP?
0.999

Request: switch fluorescence ratio, test system ATP, entry GCGTTTTTTG;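 further: ATP exposure 15 min at 22 °C before imaging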
0.991

Give switch fluorescence ratio (ATP) of the following sequence: ATAGCAGGGT
1

Please state recorded switch fluorescence ratio (tested on ATP) of AAGGTCCGCG;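 further: ATP exposure 15 min at 22 °C before imaging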
1.08

Entry TTAAGGTTAT , system ATP: what switch fluorescence ratio was measured?;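 further: ATP exposure 15 min at 22 °C before imaging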
1.02

Query switch fluorescence ratio on ATP for TATGGTTTAG
1.02

# get_value(readout= switch fluorescence ratio, system= ATP) for GGAACTTGTT;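 further: ATP exposure 15 min at 22 °C before imaging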
0.99

Give ATP switch fluorescence ratio for CTAACATCCG
1.06

Query the reported switch fluorescence ratio for ATP; item: GGGCACAGAA
0.975

* * *

switch fluorescence ratio for assorted sequences
- Test system: ATP;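 further: ATP exposure 15 min at 22 °C before imaging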
- test description: switch fluorescence ratio, 500 uM ATP over buffer (Cy3 cluster intensity, sum of 5 cycles each) (fold (ratio)); higher = stronger signal-on switching upon ATP binding; sequences stand for … in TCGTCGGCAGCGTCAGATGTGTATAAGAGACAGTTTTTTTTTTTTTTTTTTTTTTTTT…TC
- condition details: aptamer strand: ATP DNA aptamer (quencher-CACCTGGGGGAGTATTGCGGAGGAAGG + anchor), 100 nM annealed; ATP concentration: 500 uM
Keep the answer to the number alone.

TTTATGAGCT	1.03
GGGATGGCTG	1.01
TGGTTTAAGG	0.984
TAAACAATTA	0.973
GATTTAAGAT	1.01
GTCAGTGGGC	0.998
AAGAAGGGGA	1.22
TTTGTGTTTA	0.979

For GGAACTGGCG , what is its reported switch fluorescence ratio?
0.938

Sample TCGGGGCGCG — what was its switch fluorescence ratio?
0.975

Given the sequence TATAGGGAGC , what is its reported switch fluorescence ratio?
0.947

Reported switch fluorescence ratio for AAAATGTTTT : what is it?
1.02

Which switch fluorescence ratio reading was recorded for the sequence TCAATGGCTA ?
1.02

Given the entry GGCGTAGGAG , report its measured switch fluorescence ratio.
0.997

* * *

Catalogue of switch fluorescence ratio readings, one per entry.
- Test system: ATP;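 further: ATP exposure 15 min at 22 °C before imaging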
- test description: switch fluorescence ratio, 500 uM ATP over buffer (Cy3 cluster intensity, sum of 5 cycles each) (fold (ratio)); higher = stronger signal-on switching upon ATP binding; sequences stand for … in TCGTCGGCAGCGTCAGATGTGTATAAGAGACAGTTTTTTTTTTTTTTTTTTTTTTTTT…TC
- condition details: aptamer strand: ATP DNA aptamer (quencher-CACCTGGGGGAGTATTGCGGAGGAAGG + anchor), 100 nM annealed; ATP concentration: 500 uM
Lab note: jot down the number only; don't add units.

CGAGTAAATG	1.01

Form field: reported switch fluorescence ratio of CCTGGGGAAT
1.91

Which switch fluorescence ratio value is on record for GGGACTTAGC ?
1.02

Quick one: switch fluorescence ratio for TAAGGGGCAA ?
1.01

May I ask what switch fluorescence ratio has been recorded for GCGTAAATTG ?
0.992

# query: switch fluorescence ratio of entry CAGATCAGTA
0.964

Fill in the blank: the reported switch fluorescence ratio of ATGGGCAGGG is ____.
0.993

Item GGAAAGGGGT has what recorded switch fluorescence ratio?
1.03

Which switch fluorescence ratio is reported for this sequence? GAGGGGCCTA
0.968

Please report the recorded switch fluorescence ratio for GGGCTATGTA .
0.993

* * *

- Test system: ATP;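 further: ATP exposure 15 min at 22 °C before imaging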
- test description: switch fluorescence ratio, 500 uM ATP over buffer (Cy3 cluster intensity, sum of 5 cycles each) (fold (ratio)); higher = stronger signal-on switching upon ATP binding; sequences stand for … in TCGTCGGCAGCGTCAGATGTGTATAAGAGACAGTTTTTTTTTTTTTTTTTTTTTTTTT…TC
- condition details: aptamer strand: ATP DNA aptamer (quencher-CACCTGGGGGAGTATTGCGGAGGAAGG + anchor), 100 nM annealed; ATP concentration: 500 uM
endpoint label: switch fluorescence ratio
Give the value as a plain number.

Example entries and their recorded answers appear below.
TGGGAGGATT	1
CAAAAATTTT	0.986
GGGAGAGAAT	1.01

Look at this sequence and give its reported switch fluorescence ratio. CAGGGGGCTT
1.03

// switch fluorescence ratio lookup, key: GGGCAATGCT
3.33

Dear colleague, I am looking for the recorded switch fluorescence ratio of the following sequence: CTGTTATGTG
0.952
